assay: Quantitative High-Throughput drug screen in 47 multiple myeloma cell lines against the NCATS MIPE library collection: MM1R_ATCC cell viability assay (AID 1918981); conditions: MM1R multiple myeloma cells, CellTiter-Glo viability, 48 h; series mostly up to 45.8 µM; also: nearly all actives have a fitted effect of over 35% in size
Inconclusive results are not listed. Active and inactive are the calls of the source. Calls follow the shape of the dose curve; as a rule, active = well fitted cell-killing curve with a large enough effect; inconclusive = small, poorly fitted or top-dose-only effect, or effect the other way; inactive = no such curve, though single readings can be large or run the other way.
Entry note: the call must match one of 1 for active, 0 for inactive

Answered cases to consult:
* COc1ccc(F)c(F)c1C(=O)c1cnc(NC2CCN(S(C)(=O)=O)CC2)nc1N | 1
* CC=CC1=C(C(=O)O)N2C(=O)[C@H](NC(=O)[C@H](N)c3ccc(O)cc3)[C@@H]2SC1 | 0
* O=C(Nc1cn[nH]c1-c1nc2ccc(CN3CCOCC3)cc2[nH]1)NC1CC1 | 1
* CCNC(=O)Nc1ccc2ncc(Nc3ccc(C)cc3)nc2n1 | 1
* COc1cc(C(=O)N2CCC(N3CCN(C)CC3)CC2)ccc1Nc1ncc2c(n1)N(C)c1ccccc1C(=O)N2C | 1

Query: // outcome(item) with item = `OCCCNc1cc(-c2ccnc(Nc3cccc(Cl)c3)n2)ccn1`
Result: 1

Query: // outcome(item) with item = `C[C@@H](Oc1cc(-n2cnc3ccc(CN4CCN(C)CC4)cc32)sc1C(N)=O)c1ccccc1C(F)(F)F`
Result: 1

Query: // outcome(item) with item = `COc1cc2c(Oc3ccc4[nH]c(C)cc4c3F)ncnc2cc1OCCCN1CCCC1`
Result: 1

Query: // outcome(item) with item = C=C1C(=CC=C2CCCC3(C)[C@@H]([C@H](C)C=CC=CC(O)(CC)CC)CC[C@@H]23)C[C@@H](O)C[C@@H]1O (some centres undefined)
Result: 1
